Attribute: phenotypic distance
- Tested on: E31 (patient-derived glioblastoma stem cells of proneural subtype);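 further: cell Painting imaging in 384-well plates, CellProfiler features reduced to at least 20 principal components, Euclidean distance versus same-plate DMSO vehicle wells (0.1% v/v), median over six images per well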
- TEST SUMMARY: phenotypic distance (Euclidean, principal components) from DMSO controls (arbitrary units); higher = stronger morphological change
- ASSAY SETUP: 12.3 nM; exposure time: 72 h
Structures can show the parent of a compound that is named as a salt.

| MOLECULE | phenotypic distance |
| --- | --- |
| COC(=O)Nc1nc2cc(C(=O)c3ccc(F)cc3)ccc2[nH]1 [Flubendazol] | 0.548 |
| Cc1cc(Nc2cc(N3CCN(C)CC3)nc(Sc3ccc(NC(=O)C4CC4)cc3)n2)n[nH]1 [Tozasertib] | 0.54 |
| CCCCC(CC)CNC(=N)NC(=N)NCCCCCCNC(=N)NC(=N)NCC(CC)CCCC (centres undefined) [Alexidine dihydrochloride] | 0.686 |
| NCc1ccccc1CC(=O)N[C@@H]1C(=O)N2C(C(=O)O)=C(CSc3nnnn3CC(=O)O)CS[C@H]12 [Ceforanide] | 0.599 |
| COc1cccc2c1C(=O)c1c(O)c3c(c(O)c1C2=O)C[C@@](O)(C(=O)CO)C[C@@H]3O[C@H]1C[C@H](N)[C@H](O)[C@H](C)O1 [Doxorubicin hydrochloride] | 2.49 |
| Cn1ncnc1[C@H]1c2n[nH]c(=O)c3cc(F)cc(c23)N[C@@H]1c1ccc(F)cc1 [Talazoparib] | 1.58 |
| O=C1c2c(O)ccc(O)c2C(=O)c2c(NCCNCCO)ccc(NCCNCCO)c21 [Mitoxantrone] | 3.14 |
| CCCSc1ccc2[nH]c(NC(=O)OC)nc2c1 [Albendazole] | 0.712 |
| CC(C)NCC(O)COc1cccc2ccccc12 (centres undefined) [Propranolol hydrochloride] | 0.694 |

Measured values drawn from the supplement of paper PMC13207355 for this set.
